molecular target: HIV-1 JR-CSF Env N355A (HIV-1 isolate JR-CSF) (UniProt P20871); test: cell-based or functional assay
Entries whose Fold IC50 increase relative to wild-type is below 1 fold take yes; entries at or above 1 fold take no.

The examples below pair each entry with its known result.
>  <binder>
PGT-127 (antibody, V domains shown) VH: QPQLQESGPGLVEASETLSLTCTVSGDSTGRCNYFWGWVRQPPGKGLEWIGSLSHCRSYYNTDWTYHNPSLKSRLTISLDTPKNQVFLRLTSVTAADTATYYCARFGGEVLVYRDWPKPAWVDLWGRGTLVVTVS VL: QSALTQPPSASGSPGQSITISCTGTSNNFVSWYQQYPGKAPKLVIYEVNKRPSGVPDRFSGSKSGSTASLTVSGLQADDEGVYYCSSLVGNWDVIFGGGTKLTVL

>  <assigned.label>
no

$$$$
>  <binder>
PGT-128 (antibody, V domains shown) VH: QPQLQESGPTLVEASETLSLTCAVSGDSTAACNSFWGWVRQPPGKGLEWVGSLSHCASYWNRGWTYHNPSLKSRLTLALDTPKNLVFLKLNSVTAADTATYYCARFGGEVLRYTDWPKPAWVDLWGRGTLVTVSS VL: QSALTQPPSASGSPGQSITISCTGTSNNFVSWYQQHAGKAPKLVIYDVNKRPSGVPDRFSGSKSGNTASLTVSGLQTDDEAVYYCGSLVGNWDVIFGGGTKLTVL

>  <assigned.label>
yes

$$$$
>  <binder>
PGT-135 (antibody, V domains shown) VH: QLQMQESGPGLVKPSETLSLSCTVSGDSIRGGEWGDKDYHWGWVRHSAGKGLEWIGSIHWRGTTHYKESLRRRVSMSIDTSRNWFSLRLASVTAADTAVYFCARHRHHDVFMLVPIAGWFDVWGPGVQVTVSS VL: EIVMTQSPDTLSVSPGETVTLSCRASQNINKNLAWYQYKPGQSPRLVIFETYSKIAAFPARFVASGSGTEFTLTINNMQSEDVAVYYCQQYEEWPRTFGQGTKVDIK

>  <assigned.label>
yes

$$$$

Problem: Dear reviewer, please state whether PGT-130 (antibody, V domains shown) VH: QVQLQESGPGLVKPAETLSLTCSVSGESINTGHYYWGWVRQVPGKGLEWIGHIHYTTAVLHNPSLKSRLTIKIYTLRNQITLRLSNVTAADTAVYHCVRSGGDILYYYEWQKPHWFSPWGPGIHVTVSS VL: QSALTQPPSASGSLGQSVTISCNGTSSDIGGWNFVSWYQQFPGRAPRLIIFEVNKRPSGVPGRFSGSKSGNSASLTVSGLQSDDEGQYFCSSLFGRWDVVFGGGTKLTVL has Fold IC50 increase relative to wild-type strictly beneath 1 fold.
Solution: no

Problem: Dear reviewer, please state whether PGT-126 (antibody, V domains shown) VH: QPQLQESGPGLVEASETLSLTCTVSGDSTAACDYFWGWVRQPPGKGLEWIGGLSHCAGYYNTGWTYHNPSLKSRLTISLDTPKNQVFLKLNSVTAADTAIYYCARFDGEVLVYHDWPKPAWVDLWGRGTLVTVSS VL: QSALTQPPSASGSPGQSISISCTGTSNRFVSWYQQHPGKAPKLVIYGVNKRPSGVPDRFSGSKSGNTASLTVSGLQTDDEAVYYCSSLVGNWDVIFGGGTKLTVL has Fold IC50 increase relative to wild-type strictly beneath 1 fold.
Solution: yes
